All values here come from patent EP4778941A1.

Below: a set of entries, each annotated with reported koff.
# targetOrSystem: T1, His-tagged human HER3 antigen (human, UniProt P21860 20-643)
# T1 construct: Soluble antigen used as analyte in SPR; not shown: His tag
# experimentDescription: SPR, Biacore 8K; antibody captured, His-tagged human HER3 antigen 6.25-400 nM as analyte; 1:1 Langmuir
Kindly provide the numeric value in s⁻¹ only, without the unit symbol.

Solved entries:
- binder: "Antibody A N93S (antibody, human IgG1, kappa, V domains shown, Differs from antibody A only by N to S at position 93 of VL) VH: QVQLVQSGGGLVQPGRSLRLSCAASGFTFDDYAMHWVRQAPGKGLEWVSGISWNSGSIGYADSVKGRFTISRDNAKNSLYLQMNSLRAEDTALYYCAKEGLPGLDYWGQGTLVTVSS VL: DIQMTQSPSSLSASIGDRATITCRASQHVGTYLNWYQQKPGKTPKLLISGAANLQSGVPSRFSGSGSGTDFTLTISSLQPEDFATYYCQQSYSTPPFSFGQGTKVEIKR"
  unit: "s⁻¹"
  reportedMeasurement: 0.0215
- binder: "Antibody A N93Q (antibody, human IgG1, kappa, V domains shown, Differs from antibody A only by N to Q at position 93 of VL) VH: QVQLVQSGGGLVQPGRSLRLSCAASGFTFDDYAMHWVRQAPGKGLEWVSGISWNSGSIGYADSVKGRFTISRDNAKNSLYLQMNSLRAEDTALYYCAKEGLPGLDYWGQGTLVTVSS VL: DIQMTQSPSSLSASIGDRATITCRASQHVGTYLNWYQQKPGKTPKLLISGAANLQSGVPSRFSGSGSGTDFTLTISSLQPEDFATYYCQQSYQTPPFSFGQGTKVEIKR"
  unit: "s⁻¹"
  reportedMeasurement: 0.0295
- binder: "Antibody A T94V (antibody, human IgG1, kappa, V domains shown, Differs from antibody A only by T to V at position 94 of VL) VH: QVQLVQSGGGLVQPGRSLRLSCAASGFTFDDYAMHWVRQAPGKGLEWVSGISWNSGSIGYADSVKGRFTISRDNAKNSLYLQMNSLRAEDTALYYCAKEGLPGLDYWGQGTLVTVSS VL: DIQMTQSPSSLSASIGDRATITCRASQHVGTYLNWYQQKPGKTPKLLISGAANLQSGVPSRFSGSGSGTDFTLTISSLQPEDFATYYCQQSYNVPPFSFGQGTKVEIKR"
  unit: "s⁻¹"
  reportedMeasurement: 0.0108
- binder: "Anti-HER3 antibody A (antibody, human IgG1, kappa, V domains shown) VH: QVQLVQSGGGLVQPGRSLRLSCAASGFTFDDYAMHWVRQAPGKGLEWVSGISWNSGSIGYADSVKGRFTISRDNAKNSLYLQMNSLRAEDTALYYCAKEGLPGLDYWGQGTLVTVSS VL: DIQMTQSPSSLSASIGDRATITCRASQHVGTYLNWYQQKPGKTPKLLISGAANLQSGVPSRFSGSGSGTDFTLTISSLQPEDFATYYCQQSYNTPPFSFGQGTKVEIKR"
  unit: "s⁻¹"
  reportedMeasurement: 0.0103

Turning to the following binder.
Please look up its koff: Antibody A N93T (antibody, human IgG1, kappa, V domains shown, Differs from antibody A only by N to T at position 93 of VL) VH: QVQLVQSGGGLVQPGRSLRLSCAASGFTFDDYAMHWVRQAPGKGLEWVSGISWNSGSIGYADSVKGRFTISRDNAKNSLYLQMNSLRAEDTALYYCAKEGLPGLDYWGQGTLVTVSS VL: DIQMTQSPSSLSASIGDRATITCRASQHVGTYLNWYQQKPGKTPKLLISGAANLQSGVPSRFSGSGSGTDFTLTISSLQPEDFATYYCQQSYTTPPFSFGQGTKVEIKR 0.0329
